Hello, the source for this data is ChEMBL document CHEMBL4229521, in case you need it.

# subjectOfTest: CYP2C8 (Homo sapiens)
# Sequence (P10632 whole entry): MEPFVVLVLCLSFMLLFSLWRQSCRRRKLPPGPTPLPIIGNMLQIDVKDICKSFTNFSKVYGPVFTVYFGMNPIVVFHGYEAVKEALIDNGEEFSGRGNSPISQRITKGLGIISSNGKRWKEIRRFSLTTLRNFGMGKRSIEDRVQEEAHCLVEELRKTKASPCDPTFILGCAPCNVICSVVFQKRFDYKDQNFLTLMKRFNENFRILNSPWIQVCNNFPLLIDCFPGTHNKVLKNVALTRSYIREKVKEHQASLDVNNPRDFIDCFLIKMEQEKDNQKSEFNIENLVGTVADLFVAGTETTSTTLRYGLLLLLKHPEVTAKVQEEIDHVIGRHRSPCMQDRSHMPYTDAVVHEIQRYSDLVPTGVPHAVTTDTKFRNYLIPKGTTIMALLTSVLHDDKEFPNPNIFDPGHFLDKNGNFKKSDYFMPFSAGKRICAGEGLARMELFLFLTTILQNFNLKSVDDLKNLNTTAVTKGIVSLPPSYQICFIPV
# assayComment: Inhibition of CYP2C8 (unknown origin) at 10 uM relative to control
# Assay type: ADME
recordedMetric: inhibition at 10 µM

Ask: Entry under review: "NC(=O)c1cc(-c2ccc(S(=O)(=O)[C@H]3CC[C@H](Nc4ccc(C(F)(F)F)cn4)CC3)cc2)ccn1" . Reported inhibition at 10 µM?
Reply: < 50%

----------
# assayComment: Solubility of the compound in water at pH 6.8
# Format: physicochemical
recordedMetric: solubility

Ask: Entry under review: "CC(C)(C)c1ccc(S(=O)(=O)N2CCC(Nc3ccc(C#N)cn3)CC2)cc1" . Reported solubility?
Reply: < 0.1 µg/mL
